Target: GRK2 (S670A), flow cytometry and crystallography (bovine, UniProt P21146 1-689, S670A)
Sequence (P21146 whole entry S670A): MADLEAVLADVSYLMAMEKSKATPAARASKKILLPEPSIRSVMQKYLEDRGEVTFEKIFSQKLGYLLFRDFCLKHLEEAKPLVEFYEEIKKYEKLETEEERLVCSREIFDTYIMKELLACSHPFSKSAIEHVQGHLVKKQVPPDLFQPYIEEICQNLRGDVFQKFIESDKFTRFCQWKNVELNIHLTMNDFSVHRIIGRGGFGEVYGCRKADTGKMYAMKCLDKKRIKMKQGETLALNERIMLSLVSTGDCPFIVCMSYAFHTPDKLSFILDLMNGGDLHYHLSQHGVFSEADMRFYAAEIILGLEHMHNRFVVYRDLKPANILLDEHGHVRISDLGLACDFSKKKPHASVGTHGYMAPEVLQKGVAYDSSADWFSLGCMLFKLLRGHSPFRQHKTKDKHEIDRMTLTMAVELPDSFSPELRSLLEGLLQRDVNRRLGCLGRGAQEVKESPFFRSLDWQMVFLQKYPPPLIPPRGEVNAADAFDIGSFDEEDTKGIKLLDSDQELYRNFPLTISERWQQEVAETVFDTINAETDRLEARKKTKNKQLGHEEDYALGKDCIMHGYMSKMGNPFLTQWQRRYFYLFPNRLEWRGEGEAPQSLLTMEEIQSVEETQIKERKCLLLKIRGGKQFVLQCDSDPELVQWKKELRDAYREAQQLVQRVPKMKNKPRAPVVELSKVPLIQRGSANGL
Test: competition
metric_name: IC50 (nM)
Write the number in nM without appending the unit.

Answered cases to consult:
[
  {
    "binder": "AGACCAUACGGGAGAGAAACUU (structured_RNA) [C13.22]",
    "unit_of_measure": "nM",
    "test_result": 46
  },
  {
    "binder": "GGCGACCAUACGGGAGAGAAACUGCC (structured_RNA) [C13.26]",
    "unit_of_measure": "nM",
    "test_result": 0.9
  },
  {
    "binder": "GGGUAGCACAGACCAUACGGGAGAGAAACUUGUGCAACCC (structured_RNA) [C13.40]",
    "unit_of_measure": "nM",
    "test_result": 1.3
  },
  {
    "binder": "GGCAGACCAUACGGGAGAGAAACUUGCC (ssRNA) [C13.28]",
    "unit_of_measure": "nM",
    "test_result": 1.5
  }
]

// IC50 value for GGGCAGACCAUACGGGAGAGAAACUUGCC (structured_RNA) [C13.29] : 0.91
